# Tested on: MCF7 breast
# assay-protocol: NCI tumour cell line growth inhibition, 48 h
I'd appreciate it if you could supply TGI values for the items below.

compound: Clc1ccc2[nH]cc(-c3nnnn3-c3ccccc3)c2c1
readout-type: TGI
meas-value: > 100 µM
--
compound: Nc1c(C(=O)Nc2ccncc2)sc2nc3c(cc12)CCCCCCCC3
readout-type: TGI
meas-value: 1.75 µM
--
compound: CC(=O)c1c(C)n([O-])c2cc(Cl)c(Cl)cc2[n+]1=O
readout-type: TGI
meas-value: > 100 µM
--
compound: CCOC(=O)c1nnc2c(C(=O)OCC)c3ccccc3n2c1N
readout-type: TGI
meas-value: > 100 µM

Okay, here is my list. What is TGI for each of these?
1. Cc1ccnc2[nH]c3ccccc3c(=O)c12
2. C#C[C@]1(O)CCC2C3CCc4cc(O)ccc4C3CC[C@@]21C (some centres not stated)
3. Cc1cc2oc(=N)c(C#N)c(C)c2cc1C
4. CC(CO)(CO)N1C(=O)C2C3C=CC(C3)C2C1=O (configuration not stated)
5. O=c1cc(-c2cccc3ccccc23)[nH]c2ncccc12

Result block:
1: > 100 µM; 2: 25.2 µM; 3: > 100 µM; 4: > 100 µM; 5: 4.25 µM
